target: IRAK-4 (Homo sapiens, UniProt Q9NWZ3); assay: IRAK-4 ELISA, OCI-Ly10 degradation; type: cell-based; parameters: endogenous in cells; details: OCI-Ly10, OCI-Ly10 cells, treated overnight
Sequence (Q9NWZ3 whole entry): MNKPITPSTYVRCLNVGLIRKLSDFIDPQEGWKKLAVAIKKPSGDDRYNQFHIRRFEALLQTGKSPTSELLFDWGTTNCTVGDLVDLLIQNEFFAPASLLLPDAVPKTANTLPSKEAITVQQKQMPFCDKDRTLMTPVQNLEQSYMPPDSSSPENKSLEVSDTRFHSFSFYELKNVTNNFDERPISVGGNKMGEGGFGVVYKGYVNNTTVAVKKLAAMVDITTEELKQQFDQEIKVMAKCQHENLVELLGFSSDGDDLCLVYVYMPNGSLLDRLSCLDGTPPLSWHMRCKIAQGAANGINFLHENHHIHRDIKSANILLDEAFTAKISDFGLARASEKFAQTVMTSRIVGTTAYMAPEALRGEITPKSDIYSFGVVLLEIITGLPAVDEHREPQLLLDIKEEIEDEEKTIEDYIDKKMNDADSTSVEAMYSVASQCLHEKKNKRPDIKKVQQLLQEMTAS
Catalogue of molecules with associated Dmax

>  <Molecule>
CC(C)Oc1cc2c(cc1NC(=O)c1cnn3cccnc13)CN(C1CCN(C3CCN(c4ccc5c(c4)CN(C4CCC(=O)NC4=O)C5=O)CC3)CC1)C2=O (centres unmarked)

>  <Dmax>
≥ 90%

$$$$
>  <Molecule>
O=C1CCC(N2C(=O)c3ccc(N4CCC(CN5CC[C@H](N6Cc7cc(NC(=O)c8cnn9cccnc89)c(N8CCOCC8)cc7C6=O)[C@@H](F)C5)CC4)cc3C2=O)C(=O)N1 (some centres unmarked)

>  <Dmax>
70 to 80%

$$$$
>  <Molecule>
O=C1CCC(N2C(=O)c3ccc(N4CC(CN5CCC(N6Cc7cc(NC(=O)c8cnn9cccnc89)c(N8CCOCC8)cc7C6=O)CC5)C4)cc3C2=O)C(=O)N1 (centres unmarked)

>  <Dmax>
≥ 90%

$$$$
>  <Molecule>
CN(C1CN(c2ccc3c(c2)CN(C2CCC(=O)NC2=O)C3=O)C1)[C@H]1CC[C@H](n2cc3cc(NC(=O)c4cnn5cccnc45)c(OCC4CC4)cc3n2)CC1 (some centres unmarked)

>  <Dmax>
≥ 90%

$$$$
>  <Molecule>
COc1cc2nn([C@H]3CCN(CC4CCN(c5ccc6c(c5)CN(C5CCC(=O)NC5=O)C6=O)CC4)C[C@@H]3F)cc2cc1NC(=O)c1cnn2cccnc12 (some centres unmarked)

>  <Dmax>
≥ 90%

$$$$

---

target: IRAK-4 (Homo sapiens); experiment: IRAK-4 ELISA, PBMC degradation; format: cell-based; parameters: endogenous in cells; host or cells: PBMC; conditions: treated overnight

>  <Compound>
O=C1CCC(N2C(=O)c3ccc(N4CC(O)(CN5CCC(n6cc7cc(NC(=O)c8cnn9cccnc89)c(OCC8CC8)cc7n6)CC5)C4)cc3C2=O)C(=O)N1 (stereo not drawn) [Example 169]

>  <Measured on>
IRAK-4 (Homo sapiens)

>  <PBMC DC90>
0.122 µM

$$$$

---

Listing: Dmax of selected compounds
target: IRAK-4 (Homo sapiens, UniProt Q9NWZ3); test: IRAK-4 ELISA, PBMC degradation; type: cell-based; set-up: endogenous in cells; host or cells: PBMC; details: treated overnight
Measured metric: Dmax

>  <Compound>
CC(C)Oc1cc2c(cc1NC(=O)c1cnn3cccnc13)CN(C1CCC(N(C)C3CN(c4ccc(C(=O)NC5CCC(=O)NC5=O)c(F)c4)C3)CC1)C2=O (stereo not drawn) [Example 328]

>  <Reported value>
≥ 90%

$$$$
>  <Compound>
O=C1CCC(N2Cc3ccc(N4CCC(CN5CCC(N6Cc7cc(NC(=O)c8cnn9cccnc89)c(N8CCC(N9CCC9)CC8)cc7C6=O)CC5)CC4)cc3C2=O)C(=O)N1 (stereo not drawn) [Example 49]

>  <Reported value>
≥ 90%

$$$$
>  <Compound>
O=C1CCC(N2C(=O)c3ccc(N4CC(F)(CN5CCC(n6cc7cc(NC(=O)c8cnn9cccnc89)c(OCC8CC8)cc7n6)CC5)C4)c(F)c3C2=O)C(=O)N1 (stereo not drawn) [Example 262]

>  <Reported value>
70 to 80%

$$$$
